B1: Hairpin Ribozyme (parent)
chain: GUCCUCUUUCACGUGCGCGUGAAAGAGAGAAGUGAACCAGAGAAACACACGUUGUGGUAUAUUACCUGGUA

variants of: B1; experiment: self-cleavage, relative activity (ratio to wild type); higher = more cleavage; co-transcriptional
REPORTED_ENDPOINT: self-cleavage
In your answer, state the number alone without any accompanying words.

## Input Record request: self-cleavage value, item C10G G19U
## Output 0.507

## Input Record request: self-cleavage value, item G13C A30G
## Output 0.114

## Input Record request: self-cleavage value, item C50U U53A
## Output 0.335

## Input Record request: self-cleavage value, item G19A A28U
## Output 0.408

## Input Record request: self-cleavage value, item C48A U63C
## Output 0.198

## Input Record request: self-cleavage value, item U9C U63C
## Output 0.133

## Input Record request: self-cleavage value, item C4A G27C
## Output 0.093

## Input Record request: self-cleavage value, item A24C U55C
## Output 0.305

## Input Record request: self-cleavage value, item U5G A22G
## Output 0.251

## Input Record request: self-cleavage value, item C37G G68C
## Output 0.131

## Input Record request: self-cleavage value, item U8G A49U
## Output 0.164

## Input Record request: self-cleavage value, item A11C G19C
## Output 0.589

## Input Record request: self-cleavage value, item A39G U63A
## Output 0.111

## Input Record request: self-cleavage value, item C37A G56U
## Output 0.189

## Input Record request: self-cleavage value, item A36G C38U
## Output 0.523

## Input Record request: self-cleavage value, item A59G U70C
## Output 0.192

## Input Record request: self-cleavage value, item U52C U67C
## Output 0.274

## Input Record request: self-cleavage value, item G25U G29U
## Output 0.126

## Input Record request: self-cleavage value, item C10A U33G
## Output 0.114

## Input Record request: self-cleavage value, item A26U U58A
## Output 0.391

## Input Record request: self-cleavage value, item U9G G27U
## Output 0.171

## Input Record request: self-cleavage value, item G54U U62C
## Output 0.172

## Input Record request: self-cleavage value, item A26C A45C
## Output 0.155

## Input Record request: self-cleavage value, item C10A U63C
## Output 0.207

## Input Record request: self-cleavage value, item C48A C66A
## Output 0.189

## Input Record request: self-cleavage value, item C10G G32C
## Output 0.207

## Input Record request: self-cleavage value, item C16G U70C
## Output 0.829

## Input Record request: self-cleavage value, item U67G G69A
## Output 0.134

## Input Record request: self-cleavage value, item U7A A64G
## Output 0.525

## Input Record request: self-cleavage value, item G42U U62C
## Output 0.149

## Input Record request: self-cleavage value, item G15C G69A
## Output 0.414

## Input Record request: self-cleavage value, item A23G U63G
## Output 0.338

## Input Record request: self-cleavage value, item A30C C48G
## Output 0.126

## Input Record request: self-cleavage value, item C6G U58C
## Output 0.484

## Input Record request: self-cleavage value, item U20A G25A
## Output 0.453

## Input Record request: self-cleavage value, item C6A A23C
## Output 0.52

## Input Record request: self-cleavage value, item A11G U14C
## Output 0.952

## Input Record request: self-cleavage value, item U2A U53A
## Output 0.303

## Input Record request: self-cleavage value, item U14C A64G
## Output 0.568

## Input Record request: self-cleavage value, item A41U G68C
## Output 0.262

## Input Record request: self-cleavage value, item G15A U70C
## Output 0.759

## Input Record request: self-cleavage value, item G27A A43G
## Output 0.0988

## Input Record request: self-cleavage value, item U14A A49U
## Output 0.13

## Input Record request: self-cleavage value, item U2A A31U
## Output 0.163

## Input Record request: self-cleavage value, item G1A A39C
## Output 0.138

## Input Record request: self-cleavage value, item U5C U62C
## Output 0.0289

## Input Record request: self-cleavage value, item A59G C66A
## Output 0.228

## Input Record request: self-cleavage value, item G27C G68A
## Output 0.105

## Input Record request: self-cleavage value, item U2C G17U
## Output 0.1

## Input Record request: self-cleavage value, item A30C G51A
## Output 0.26

## Input Record request: self-cleavage value, item G19A U55A
## Output 0.29

## Input Record request: self-cleavage value, item U20G A64C
## Output 0.184

## Input Record request: self-cleavage value, item C46A U67A
## Output 0.122

## Input Record request: self-cleavage value, item U8G A41G
## Output 0.673

## Input Record request: self-cleavage value, item U52G U70C
## Output 0.605

## Input Record request: self-cleavage value, item A47U C50G
## Output 0.28

## Input Record request: self-cleavage value, item C12A U70A
## Output 0.673

## Input Record request: self-cleavage value, item U8C U52A
## Output 0.676

## Input Record request: self-cleavage value, item A31U A39U
## Output 0.12

## Input Record request: self-cleavage value, item C3U G42A
## Output 0.123

## Input Record request: self-cleavage value, item C65G C66G
## Output 0.178

## Input Record request: self-cleavage value, item C50G U58G
## Output 0.147

## Input Record request: self-cleavage value, item G54U U55G
## Output 0.399

## Input Record request: self-cleavage value, item C6G C37U
## Output 0.257

## Input Record request: self-cleavage value, item C3U G40U
## Output 0.119

## Input Record request: self-cleavage value, item A24U C48A
## Output 0.0466

## Input Record request: self-cleavage value, item C12U C38A
## Output 0.143

## Input Record request: self-cleavage value, item G1C U67A
## Output 0.109

## Input Record request: self-cleavage value, item U14A A35G
## Output 0.956

## Input Record request: self-cleavage value, item A43G U58G
## Output 0.212

## Input Record request: self-cleavage value, item U14C G19A
## Output 0.612

## Input Record request: self-cleavage value, item C12U U55G
## Output 0.181

## Input Record request: self-cleavage value, item G29U G40U
## Output 0.147

## Input Record request: self-cleavage value, item A39G A61C
## Output 0.139

## Input Record request: self-cleavage value, item A26U G54U
## Output 0.34

## Input Record request: self-cleavage value, item C12U C65G
## Output 0.2

## Input Record request: self-cleavage value, item U5C C66A
## Output 0.143

## Input Record request: self-cleavage value, item G15A G42U
## Output 0.301

## Input Record request: self-cleavage value, item G29U A59C
## Output 0.0619

## Input Record request: self-cleavage value, item A44U A49U
## Output 0.109

## Input Record request: self-cleavage value, item A39U A49U
## Output 0.0838

## Input Record request: self-cleavage value, item C37U A43U
## Output 0.0491

## Input Record request: self-cleavage value, item A11G A49G
## Output 0.577

## Input Record request: self-cleavage value, item A41C G56A
## Output 0.155

## Input Record request: self-cleavage value, item G21U U52A
## Output 0.806

## Input Record request: self-cleavage value, item A35G A64G
## Output 0.277

## Input Record request: self-cleavage value, item A11G A22G
## Output 0.774

## Input Record request: self-cleavage value, item U14A G15A
## Output 1

## Input Record request: self-cleavage value, item G29A G51U
## Output 0.0861

## Input Record request: self-cleavage value, item U20C A30U
## Output 0.0821

## Input Record request: self-cleavage value, item U14G C46A
## Output 0.113
